Read-out: 3-Hydroxy-3-Methylglutaryl-CoA Synthase 2 (HMGCS2), HMGCS2 (gene 3158)
Test: LTEA_HepaRG_HMGCS2: Life Technologies and Expression Analysis (LTEA) Assay for 3-Hydroxy-3-Methylglutaryl-CoA Synthase 2 (HMGCS2) using HepaRG (AID 2283504)
Conditions: mRNA level, 48 h; actives raise or lower the signal
The source made the active and inactive calls. Rule for the calls: active = hit-call score of the fitted dose curve at least 0.9, where 1 is the maximum; inactive = score below 0.9.
TEST READOUT: AC50

>>> df
                                    compound    reported_value
 0                 COC(=O)C=C(C)OP(=O)(OC)OC          inactive
 1                CC1=C(C(=O)Nc2ccccc2)SCCO1  71.8 µM (active)
 2                                  CNC(=S)S          inactive
 3  C#CCOS(=O)OC1CCCCC1Oc1ccc(C(C)(C)C)cc1 (centres undefined)  25.6 µM (active)
 4                    CN(C)C(=S)SSC(=S)N(C)C          inactive
 5  CC1COC(Cn2cncn2)(c2ccc(Oc3ccc(Cl)cc3)cc2Cl)O1 (centres undefined)  11.7 µM (active)
 6    COc1ccc(C(c2ccc(OC)cc2)C(Cl)(Cl)Cl)cc1  91.8 µM (active)
 7  N#CC(CCc1ccc(Cl)cc1)(Cn1cncn1)c1ccccc1 (centres undefined)  67.9 µM (active)
 8  CCOC(=O)CC(SP(=S)(OC)OC)C(=O)OCC (centres undefined)          inactive
 9                   CCNc1nc(Cl)nc(NC(C)C)n1          inactive
10  CC(C)(C)c1ccc(CSc2cnn(C(C)(C)C)c(=O)c2Cl)cc1  2.38 µM (active)
11                      O=C(O)c1nc(Cl)ccc1Cl          inactive
12                      CNC(=O)ON=CC(C)(C)SC          inactive
13              CON(C)C(=O)Nc1ccc(Cl)c(Cl)c1  63.4 µM (active)
